I'd be grateful if you could share measured activation at 10 µM for these entries.
# TARGET: Drosophila OR98a (Drosophila melanogaster)
# Construct: expressed in transfected cells
# Sequence (Q9VAZ3 1-397): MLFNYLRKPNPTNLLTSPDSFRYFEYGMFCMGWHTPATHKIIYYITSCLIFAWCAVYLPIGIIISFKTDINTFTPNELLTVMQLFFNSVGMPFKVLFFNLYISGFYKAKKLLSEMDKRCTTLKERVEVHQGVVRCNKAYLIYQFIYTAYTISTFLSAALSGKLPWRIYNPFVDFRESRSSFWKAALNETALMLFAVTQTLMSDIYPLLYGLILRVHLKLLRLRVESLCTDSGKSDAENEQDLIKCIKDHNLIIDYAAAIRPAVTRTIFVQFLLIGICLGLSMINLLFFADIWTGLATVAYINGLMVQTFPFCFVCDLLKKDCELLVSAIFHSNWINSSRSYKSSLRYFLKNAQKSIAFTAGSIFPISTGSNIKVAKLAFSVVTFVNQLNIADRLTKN
# Sequence (Q9VNB5 1-486 partner): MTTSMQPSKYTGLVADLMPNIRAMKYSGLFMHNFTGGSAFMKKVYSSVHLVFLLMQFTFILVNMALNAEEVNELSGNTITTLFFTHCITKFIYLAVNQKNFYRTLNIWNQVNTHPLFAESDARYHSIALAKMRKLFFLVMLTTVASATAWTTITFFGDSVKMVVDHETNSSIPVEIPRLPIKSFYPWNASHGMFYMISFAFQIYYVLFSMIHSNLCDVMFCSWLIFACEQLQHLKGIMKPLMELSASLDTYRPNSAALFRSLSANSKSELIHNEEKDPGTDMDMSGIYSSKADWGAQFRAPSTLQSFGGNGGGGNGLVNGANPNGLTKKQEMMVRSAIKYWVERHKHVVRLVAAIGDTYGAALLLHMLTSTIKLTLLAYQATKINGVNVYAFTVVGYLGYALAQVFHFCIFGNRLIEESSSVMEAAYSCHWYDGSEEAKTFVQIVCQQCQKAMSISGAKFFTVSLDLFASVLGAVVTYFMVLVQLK
# MEASUREMENT_PROTOCOL: Calcium ion fluorescence (GCaMP6) assay, OR98a stable HEK293 cell line;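 further: ligand concentrations in µM final VOC concentration in well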
# Assay type: cell-based
# CONDITION_SUMMARY: HEK293, read-out: OR98a Average response (VUAA1-normalized)
The figure you give is taken to be in %; do not add the unit.

Given the entry CCCOC(C)=O [propyl acetate] , report its measured activation at 10 µM.
8

Fill blank: measured activation at 10 µM of the compound CCCCC(C)O (centres unmarked) is ____.
0

Consider the compound C=CC(O)CCCCC (centres unmarked) and give its measured activation at 10 µM.
1

Suppose we examine the compound CC/C=C\CCOC(C)=O [z3-hexenyl acetate] ; what activation at 10 µM value has been reported?
1

Give the measured activation at 10 µM of `CCCCCCCCCCCCCC` .
12

For the compound shown here, `CCCCCC(C)=O` , give the reported activation at 10 µM.
2

If you can, please state the reported activation at 10 µM value of COC(=O)c1ccccc1 [methyl benzoate] .
0

Report activation at 10 µM for CC(=O)OCCC(C)C [isopentyl acetate] please.
2

// query activation at 10 µM value for entry CCCCCC(O)CC (centres unmarked)
4

activation at 10 µM for CCCCCC(C)O (centres unmarked) ?
4

GET /values?readout=activation at 10 µM&item= CCOC(=O)c1ccccc1 [ethyl benzoate]
0

Given the entry CCCCCOC(C)=O [pentyl acetate] , report its measured activation at 10 µM.
4

Entry `OCCc1ccccc1` has what activation at 10 µM?
5

Dear colleague, I am looking for the recorded activation at 10 µM of the following compound: `CCCCCC(=O)CC`
0

* * *

# TARGET: Drosophila OR71a (Drosophila melanogaster, UniProt Q9VUK5)
# Construct: expressed in transfected cells
# Sequence (Q9VUK5 1-378): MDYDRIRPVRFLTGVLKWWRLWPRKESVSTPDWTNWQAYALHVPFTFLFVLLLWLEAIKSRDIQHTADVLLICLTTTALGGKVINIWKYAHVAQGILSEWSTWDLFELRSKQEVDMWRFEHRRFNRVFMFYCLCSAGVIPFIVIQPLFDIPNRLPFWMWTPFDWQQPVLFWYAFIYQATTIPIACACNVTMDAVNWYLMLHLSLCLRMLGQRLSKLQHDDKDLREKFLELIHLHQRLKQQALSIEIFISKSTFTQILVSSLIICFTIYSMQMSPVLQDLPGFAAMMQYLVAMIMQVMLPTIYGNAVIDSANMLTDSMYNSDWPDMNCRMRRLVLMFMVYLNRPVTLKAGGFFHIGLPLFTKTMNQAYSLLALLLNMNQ
# Sequence (Q9VNB5 1-486 partner): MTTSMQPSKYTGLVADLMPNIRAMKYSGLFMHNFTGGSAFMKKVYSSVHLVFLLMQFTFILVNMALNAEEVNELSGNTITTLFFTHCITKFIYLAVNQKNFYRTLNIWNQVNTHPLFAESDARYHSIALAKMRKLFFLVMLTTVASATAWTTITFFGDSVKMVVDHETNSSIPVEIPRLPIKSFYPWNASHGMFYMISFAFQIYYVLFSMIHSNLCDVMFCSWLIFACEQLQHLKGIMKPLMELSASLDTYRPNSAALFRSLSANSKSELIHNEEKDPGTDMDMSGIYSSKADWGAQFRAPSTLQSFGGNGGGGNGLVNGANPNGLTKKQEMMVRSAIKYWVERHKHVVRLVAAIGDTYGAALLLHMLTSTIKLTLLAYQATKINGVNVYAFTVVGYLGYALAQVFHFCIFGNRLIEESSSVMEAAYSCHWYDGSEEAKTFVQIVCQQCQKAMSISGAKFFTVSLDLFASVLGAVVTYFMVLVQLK
# MEASUREMENT_PROTOCOL: Calcium ion fluorescence (GCaMP6) assay, OR71a stable HEK293 cell line
# Type: cell-based
# CONDITION_SUMMARY: HEK293, read-out: OR71a response (VUAA1-normalized response)
ASSAY_ENDPOINT: activation at 10 µM (%)
Kindly provide the numeric value in % only, without the unit symbol.

I have this molecule here, CCCCCCCCCC=O [decanal] , and I need its recorded activation at 10 µM.
0

Which value of activation at 10 µM has been reported for C=C1CC[C@H]2O[C@]2(C)CC[C@@H]2[C@@H]1CC2(C)C [(-)-caryophyllene oxide] in the records?
0

For CCCC(O)CC (stereo not drawn) [3-hexanol] , what is its reported activation at 10 µM?
6

Any idea what its activation at 10 µM is? The molecule is Cc1ccc(O)cc1 [4-methylphenol]
0

What value of activation at 10 µM has been reported for the following molecule? CCOC(=O)CC [ethyl propionate]
0

Using the record for CC1=CC[C@@H](C(C)(C)O)CC1 [alpha-terpineol] , report its activation at 10 µM.
0

* * *

# TARGET: Drosophila OR49b (Drosophila melanogaster, UniProt Q9V6H2)
# Construct: expressed in transfected cells
# Sequence (Q9V6H2 1-375): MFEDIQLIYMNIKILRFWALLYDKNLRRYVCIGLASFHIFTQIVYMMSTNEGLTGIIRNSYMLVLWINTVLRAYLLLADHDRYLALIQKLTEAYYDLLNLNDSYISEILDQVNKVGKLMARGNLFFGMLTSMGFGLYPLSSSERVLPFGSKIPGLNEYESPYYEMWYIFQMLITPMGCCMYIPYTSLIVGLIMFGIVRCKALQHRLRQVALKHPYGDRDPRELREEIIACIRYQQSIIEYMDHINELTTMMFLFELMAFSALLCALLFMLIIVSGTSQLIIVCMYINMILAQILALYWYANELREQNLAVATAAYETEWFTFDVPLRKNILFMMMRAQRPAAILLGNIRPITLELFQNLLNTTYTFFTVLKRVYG
# Sequence (Q9VNB5 1-486 partner): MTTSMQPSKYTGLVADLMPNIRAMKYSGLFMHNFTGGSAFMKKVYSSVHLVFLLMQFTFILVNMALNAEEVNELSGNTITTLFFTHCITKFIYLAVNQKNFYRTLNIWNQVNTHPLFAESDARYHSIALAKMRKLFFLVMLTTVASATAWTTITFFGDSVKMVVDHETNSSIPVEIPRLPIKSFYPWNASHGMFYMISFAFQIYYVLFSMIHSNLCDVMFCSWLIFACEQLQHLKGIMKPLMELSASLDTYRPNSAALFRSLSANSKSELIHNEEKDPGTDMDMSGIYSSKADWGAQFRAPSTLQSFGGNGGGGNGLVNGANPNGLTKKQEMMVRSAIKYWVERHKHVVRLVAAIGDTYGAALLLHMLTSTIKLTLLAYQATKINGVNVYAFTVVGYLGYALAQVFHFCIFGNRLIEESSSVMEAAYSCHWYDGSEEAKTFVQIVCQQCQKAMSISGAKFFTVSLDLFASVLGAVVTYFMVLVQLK
# MEASUREMENT_PROTOCOL: cell-based
# CONDITION_SUMMARY: LOG EC50, AVERAGE, OR49b; average of 5 biological replicates
ASSAY_ENDPOINT: pEC50
Hey, just a heads up that pEC50 is the negative log base 10 of the concentration in molar.

Given the entry `Cc1ccccc1O` , report its measured pEC50.
4.86
